- assay.explanation: Acute toxicity (LD50)
- assay.context: rat, in vivo, po
measurement.name: LD50

(Q) Which LD50 is reported for this molecule? CCCCCCCCc1ccc(CCC(N)(CO)CO)cc1.Cl
(A) > 10 mg/kg

---

- assay.explanation: Acute toxicity (LD50)
- assay.context: monkey, in vivo, po
measurement.name: LD50

(Q) Given the compound CCCCCCCCc1ccc(CCC(N)(CO)CO)cc1.Cl , what is its reported LD50?
(A) > 10 mg/kg
